Assay: Pharmacokinetics of LNK-754-TS in mice, oral
Assay type: in vivo, mouse
Conditions: C57BL/6, mouse, in vivo, po, 9 mg/kg, Group 9 (9 mg/kg Day 5), C57BL/6 mice, oral; read-out: MRT(0-∞)
Quantity measured: MRT inf (h)
Give bare numbers, in h.

Using the record for C#Cc1cccc(-c2cc(=O)n(C)c3ccc([C@](O)(c4ccc(Cl)cc4)c4cncn4C)cc23)c1 [LNK-754-TS] , state its measured MRT inf.
1.43

----------
Experiment: Pharmacokinetics of LNK-754-TS in mice, oral
Assay type: in vivo, mouse
Settings: C57BL/6, mouse, in vivo, po, 9 mg/kg, Group 9 (9 mg/kg Day 5), C57BL/6 mice, oral
Quantity measured: AUC(0-inf)
Quick note: unit goes after the number.

Indicate its recorded AUC(0-inf); the compound in question is "C#Cc1cccc(-c2cc(=O)n(C)c3ccc([C@](O)(c4ccc(Cl)cc4)c4cncn4C)cc23)c1"
2630 ng·h/mL

----------
Molecular target: GGTase (Homo sapiens, UniProt P49354+P53609)
Assay: Table 5A in vitro GGTI (H-Ras, K-Ras CAAX mutant)
Assay type: biochemical
Details: read-out: H-Ras CAAX Mutant GGTI
Quantity measured: pIC50
Numbers only, as −log10 of the molar value.

Return reported pIC50. Input molecule: "C#Cc1cccc(-c2cc(=O)n(C)c3ccc([C@](O)(c4ccc(Cl)cc4)c4cncn4C)cc23)c1"
6.26

----------
Experiment: Pharmacokinetics of Zarnestra in C57BL/6 mice, oral
Assay type: in vivo, mouse
Details: mouse, Brain, oral 5 mg/kg single dose
Quantity measured: Tmax (h)
One number for each entry, in h.

Check the records and state Tmax for "Cn1cncc1[C@@](N)(c1ccc(Cl)cc1)c1ccc2c(c1)c(-c1cccc(Cl)c1)cc(=O)n2C"
1

----------
Assay: Pharmacokinetics of LNK-754-TS in mice, oral
Assay type: in vivo, mouse
Conditions: C57BL/6, mouse, in vivo, po, 9 mg/kg, 9 mg/kg oral, BID day 1, 20% beta-cyclodextrin, mice; read-out: AUC
Quantity measured: AUC
Report the figure along with its unit, number first.

Supply reported AUC belonging to this compound: "C#Cc1cccc(-c2cc(=O)n(C)c3ccc([C@](O)(c4ccc(Cl)cc4)c4cncn4C)cc23)c1"
2100 ng·h/mL

----------
Assay: Pharmacokinetics of LNK-754-TS in mice, oral
Assay type: in vivo, mouse
Details: C57BL/6, mouse, in vivo, po, 9 mg/kg, Group 5 (9 mg/kg SID), C57BL/6 mice, oral; read-out: MRT(0-∞)
Quantity measured: MRT inf (h)
Numbers only, in h.

# return recorded MRT inf for entry "C#Cc1cccc(-c2cc(=O)n(C)c3ccc([C@](O)(c4ccc(Cl)cc4)c4cncn4C)cc23)c1"
2.38

----------
Molecular target: GGTase (Homo sapiens, UniProt P49354+P53609)
Assay: Table 5A in vitro GGTI (H-Ras, K-Ras CAAX mutant)
Assay type: biochemical
Conditions: read-out: K-Ras CAAX Mutant GGTI
Quantity measured: IC50 (nM)
Answers are plain numbers, in nM.

Check GGTase (Homo sapiens, UniProt P49354+P53609) data and give IC50 for "C#Cc1cccc(-c2cc(=O)n(C)c3ccc([C@](O)(c4ccc(Cl)cc4)c4cncn4C)cc23)c1" .
2890

----------
Test: Pharmacokinetics of LNK-754-TS in mice, oral
Format: in vivo, mouse
Settings: C57BL/6, mouse, in vivo, po, 9 mg/kg, Group 5 (9 mg/kg SID), C57BL/6 mice, oral
Quantity measured: AUC(0-t)

Give recorded AUC(0-t). "C#Cc1cccc(-c2cc(=O)n(C)c3ccc([C@](O)(c4ccc(Cl)cc4)c4cncn4C)cc23)c1"
730 ng·h/mL

----------
Assay: Pharmacokinetics of LNK-754-TS in mice, oral
Format: in vivo, mouse
Conditions: C57BL/6, mouse, in vivo; 0.09 mg/kg oral, QD day 1, 5% beta-cyclodextrin, mice
Quantity measured: Tmax
Hi, when you answer, please include the unit after the number. Thanks!

Supply reported Tmax belonging to this compound: "C#Cc1cccc(-c2cc(=O)n(C)c3ccc([C@](O)(c4ccc(Cl)cc4)c4cncn4C)cc23)c1"
30 min

----------
Assay: Pharmacokinetics of Zarnestra in C57BL/6 mice, oral
Type: in vivo, mouse
Conditions: mouse, Brain, oral 5 mg/kg single dose
Protocol: LLOQ: brain 4 ng/g; plasma 50 ng/ml. The pharmacokinetic profiles of LNK-754-TS and Zarnestra® were analyzed using methods known in the art. The results are shown in FIGS. 13-14 and the tables below.
Quantity measured: half-life (h)
Numbers only, in h.

Give reported half-life value for Cn1cncc1[C@@](N)(c1ccc(Cl)cc1)c1ccc2c(c1)c(-c1cccc(Cl)c1)cc(=O)n2C [Zarnestra®]
8.1
